Subject Of Test: IRAK4 (Homo sapiens (Human), UniProt Q9NWZ3)
Sequence (Q9NWZ3 whole entry, species assumed): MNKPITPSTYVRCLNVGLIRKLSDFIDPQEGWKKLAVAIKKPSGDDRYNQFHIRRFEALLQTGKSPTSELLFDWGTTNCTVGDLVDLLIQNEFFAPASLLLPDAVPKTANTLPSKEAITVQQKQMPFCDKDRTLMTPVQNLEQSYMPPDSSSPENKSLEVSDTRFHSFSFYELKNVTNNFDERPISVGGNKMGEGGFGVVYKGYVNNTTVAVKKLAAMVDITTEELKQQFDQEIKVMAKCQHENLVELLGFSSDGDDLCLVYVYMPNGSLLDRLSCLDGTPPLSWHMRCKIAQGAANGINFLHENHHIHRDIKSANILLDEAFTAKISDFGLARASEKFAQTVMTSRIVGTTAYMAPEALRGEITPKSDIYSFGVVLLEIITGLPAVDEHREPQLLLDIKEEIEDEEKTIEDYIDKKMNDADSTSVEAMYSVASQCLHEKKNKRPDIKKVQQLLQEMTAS
Experiment Summary: IRAK-4 biochemical kinase assay, AlphaScreen format
Reported Conditions: 1 nM IRAK4, 1.6 μM peptide, 10 μM ATP, 3.5 h at RT; class symbols
pIC50: −log10 of the molar value.
Reported Property: pIC50

Below: 4 compounds and their reported pIC50.
Compound	pIC50
O=C1NC[C@@H]2CC[C@@H](C2)OCCCNc2cc(ccn2)-c2nc1cs2 [Example 83]	> 7.00
O=C1Nc2cn(C3CCOCC3)nc2C(=O)NCCOCCOc2cc(ccn2)-c2cccc1c2 [Example 210]	> 7.00
O=C1NCC2CCC(CC2)OCCNc2cc(ccn2)-c2nc1co2 [Example 85]	> 6.00
O=C1c2csc(n2)-c2ccnc(c2)OCCCCOCC2CCCN12 (stereo not drawn) [Example 106]	> 5.00

Problem: Would you kindly share the measured pIC50 for O=C1Nc2cn(C3CCOCC3)nc2C(=O)NCCCCCc2cc(ccn2)-c2nc1c[nH]2 [Example 97] ?
Solution: > 5.00

Problem: Using the record for O=C1Nc2cnccc2C(=O)NCCOCCOc2cc(ccn2)-c2nc1cs2 [Example 130] , report its pIC50.
Solution: > 7.00

Problem: Item under review: CN1CCN(CCn2ncc3c2C(=O)NCCOCCNc2cc(ccn2)-c2nc(cs2)C(=O)N3)CC1 [Example 142] . Reported pIC50?
Solution: > 6.00

Problem: For CC(C)(C)C(=O)N1CCCc2cc(ccn2)-c2nc(cs2)C(=O)Nc2cn(C3CCOCC3)nc2C(=O)NCC1 [Example 182] , what is its reported pIC50?
Solution: > 6.00

Problem: Reported pIC50 for O=C1NCCCCCCOc2cc(ccn2)-c2nc1co2 [Compound 58] : what is it?
Solution: > 6.00

Problem: Entry under review: O=C1Nc2cccnc2C(=O)NCCOCCOc2cc(ccn2)-c2nc1cs2 [Example 128] . Reported pIC50?
Solution: > 7.00

Problem: Looking for the measured pIC50 of CNC(=O)c1ccc2c(c1)NC(=O)c1csc(n1)-c1ccnc(c1)NCCCCCO2 [Compound 17] , can you help?
Solution: > 7.00

Problem: What does the record list as pIC50 for CCN1CCCCCCCCNC(=O)c2csc(n2)-c2ccnc1c2 [Example 67] ?
Solution: > 6.00

Problem: Fill blank: measured pIC50 of the compound CCn1cc2c(n1)C(=O)NCCOCCOc1cc(ccn1)-c1nc(cs1)C(=O)N2 [Example 139] is ____.
Solution: > 7.00

Problem: # lookup: pIC50 of CC1CNC(=O)c2coc(n2)-c2ccnc(c2)NCCCCCO1 (stereo not drawn) [Example 74]
Solution: > 5.00

Problem: # get_value(readout='pIC50', item= O=C1Nc2cn(C3CCOCC3)nc2C(=O)NCCNCCCc2cc(ccn2)-c2nc1cs2 [Example 168] )
Solution: > 7.00

Problem: Suppose we examine the compound Cn1cc2c(n1)C(=O)NCCCCNc1cc(ccn1)-c1nc(co1)C(=O)N2 [Compound 31] ; what pIC50 value has been reported?
Solution: > 7.00

Problem: Fill in the blank: the reported pIC50 of NC(=O)CCn1cc2c(n1)C(=O)NCCOCCOc1cc(ccn1)-c1nc(cs1)C(=O)N2 [Example 151] is ____.
Solution: > 6.00

Problem: For the compound O=C1NCCCCCCCCCn2cc(cn2)-c2nc1co2 [Compound 9] , what pIC50 is on record?
Solution: > 6.00
